Test system: CCRF-CEM
assay.comment: NCI tumour cell line growth inhibition, 48 h
Active and inactive are the calls of the source. Rule as the data show it: active = GI50 up to about 1.1 µM and inactive = higher.
I would appreciate it if you answered using one of these outcomes: true (1) (active), false (0) (inactive)

Q: # lookup: test call for CCOC(=O)/C(C#N)=C/c1ccc(SCc2ccco2)c([N+](=O)[O-])c1
Result: false (0)

Q: # lookup: test call for O=C(O)CNc1ncc2c(n1)-c1ccccc1OC2
Result: false (0)

Q: # lookup: test call for O=C(O)CSc1nnc(-c2ccco2)[nH]1
Result: false (0)

Q: # lookup: test call for COC1(OC)CCCc2c1no[n+]2[O-]
Result: false (0)

Q: # lookup: test call for Cc1cc(C(C)(C)C)c(OCCCN2CCOCC2)c(C(C)(C)C)c1
Result: false (0)

Q: # lookup: test call for O=S(=O)(SCCCCSS(=O)(=O)c1ccc(Cl)cc1)c1ccc(Cl)cc1
Result: false (0)

Q: # lookup: test call for CC(=O)Nc1nc2c(=O)c3ccccc3sc2s1
Result: false (0)

Q: # lookup: test call for COc1cccc2c1C(=O)c1c(O)c3c(c(O)c1C2=O)C[C@@](O)(C(=O)CO)C[C@@H]3OC1CC(N2CCOCC2)C(O)C(C)O1 (stereo partly drawn)
Result: true (1)

Q: # lookup: test call for O=[N+]([O-])c1cc(Cl)cnc1Br
Result: false (0)

Q: # lookup: test call for CCOC(=O)CCc1c(C(=O)OCC)[nH]c(/C=C2\NC(=O)C(C)=C2CC)c1C
Result: false (0)

Q: # lookup: test call for COc1ccc(NC(=S)NC(=O)c2ccc3c(c2)Sc2ccccc2O3)c([N+](=O)[O-])c1
Result: false (0)

Q: # lookup: test call for C[C@@H]1[C@@H]2[C@@H](C=C3C4CCC5Cc6nc7c(nc6C[C@@]5(C)C4C[C@H](O)[C@]32CO)CC2CCC3C4=C[C@H]5O[C@@]6(OC(C)(CO)C[C@@H]6O)[C@H](C)[C@@]5(O)[C@]4(C)[C@@H](O)CC3[C@]2(C)C7)O[C@]12CCC(C)(C)O2 (stereo partly drawn)
Result: true (1)

Q: # lookup: test call for CN(C)CCNC(=O)c1cc(Cl)cc2ccc(-c3ccccc3)nc12
Result: false (0)

Q: # lookup: test call for Nc1ccc(Oc2ccc(C34CC5CC6C3CC3CC4C(C5)C6(c4ccc(Oc5ccc(N)cc5)cc4)C3)cc2)cc1
Result: false (0)

Q: # lookup: test call for CCOC(=O)/C(C#N)=C/c1ccc2c(c1)CC1(C2)Cc2cc(CC)c(C(C)O)cc2C1 (stereo not drawn)
Result: false (0)

Q: # lookup: test call for OC1c2ccccc2[C@@H]2[C@H]1[C@@H](c1ccccc1)C1(Cc3ccccc3C1O)[C@H]2c1ccccc1 (stereo partly drawn)
Result: false (0)

Q: # lookup: test call for C[N+](C)=C/C=C(\Cl)c1ccc2ccccc2c1
Result: false (0)

Q: # lookup: test call for O=C(Nc1ccc(Br)cc1)C(=O)C(C(=O)c1ccccc1F)C1OC(=O)c2ccccc21 (stereo not drawn)
Result: false (0)

Q: # lookup: test call for C[C@@H]1C(=O)CC2(O)[C@@]13C[C@@H](OC(=O)[C@@H]3O)[C@@H](C)[C@@]21COC1=O (stereo partly drawn)
Result: false (0)

Q: # lookup: test call for CNc1ncnc2c1cnn2CCCCO
Result: false (0)

Q: # lookup: test call for O=C(c1ccc(Cl)cc1)c1ccc(OCCCOc2ccc(C(=O)c3ccc(Cl)cc3)cc2)cc1
Result: false (0)

Q: # lookup: test call for Cc1ccc(S(=O)(=O)N/N=C2\CCC3(O)CC2(C)CCC2C3CC2(C)C)cc1 (stereo not drawn)
Result: false (0)

Q: # lookup: test call for COC(=O)c1cc(NC2OCC(OC(C)=O)C(OC(C)=O)C2OC(C)=O)nc(SC)c1C(=O)OC (stereo not drawn)
Result: false (0)

Q: # lookup: test call for C=CC[C@]1(/C=N/O)CN(S(=O)(=O)CC[Si](C)(C)C)C[C@H]2CC=CC[C@H]21
Result: false (0)

Q: # lookup: test call for O=c1oc2ccc(Cl)cc2cc1-c1cn2ccsc2n1
Result: false (0)

Q: # lookup: test call for COc1ccc2c3c1O[C@]1(C)C34CCN(C)C(C2)C42C=C[C@@]1(OC)c1c(O)ccc(O)c12
Result: false (0)

Q: # lookup: test call for O=c1c2sc3nc(NCCN4CCCCC4)ncc3c2ncn1-c1ccccc1
Result: false (0)

Q: # lookup: test call for COC(=N)C1(C#N)NC(c2ccsc2)C(C#N)(C#N)NC1c1ccsc1 (stereo not drawn)
Result: false (0)

---

For each entry below, report its GI50 value.
Test system: A549
assay.comment: NCI tumour cell line growth inhibition, 48 h
Activity calls are given as the source filed them. Cut-off read from the data, not from the text of the source: active = GI50 up to about 1.1 µM and inactive = higher.

Q: Tell me GI50 reported for S=C1OC2C3C4CC5C3C(O1)C1C5C4C21 (stereo not given)
Result: > 100 µM (inactive)

Q: Tell me GI50 reported for C=C(C)[C@H]1[C@@H]2OC(=O)[C@H]1[C@]1(O)C[C@H]3OC34C(=O)O[C@H]2[C@@]41C.CC(C)(O)[C@H]1[C@@H]2OC(=O)[C@H]1[C@]1(O)C[C@H]3OC34C(=O)O[C@H]2[C@@]41C (stereo not given in full)
Result: > 100 µM (inactive)

Q: Tell me GI50 reported for O=C(c1nc2ccc(Cl)cc2[nH]c1=O)C(O)c1ccco1 (stereo not given)
Result: 50 µM (inactive)

Q: Tell me GI50 reported for Cc1c(CCCl)c(Cl)n2c(nc3ccccc32)c1C#N
Result: 1.4 µM (inactive)

Q: Tell me GI50 reported for COc1ccc2c(c1)CCc1c-2n(CCN2CCOCC2)c2ccc(OC)cc12
Result: 60.3 µM (inactive)

Q: Tell me GI50 reported for OC(COc1ccc(Cl)cc1Cl)CN1CCCC1 (stereo not given)
Result: > 100 µM (inactive)

Q: Tell me GI50 reported for Oc1ccc2cc(Br)ccc2c1-c1c(O)ccc2ccc(Br)cc12
Result: 15.2 µM (inactive)

Q: Tell me GI50 reported for COC(=O)c1c(C)oc2ccc(OC(C)=O)cc12
Result: > 100 µM (inactive)

Q: Tell me GI50 reported for CN(C)c1ccc2c(c1)C(=O)N(OS(=O)(=O)c1ccc([N+](=O)[O-])cc1)C2=O
Result: 39.2 µM (inactive)

Q: Tell me GI50 reported for NCCCNCCCNCCCN
Result: > 100 µM (inactive)

Q: Tell me GI50 reported for CC(=O)Nc1nc2c(=O)c3ccccc3sc2s1
Result: > 100 µM (inactive)

Q: Tell me GI50 reported for O=C(O)C1CC2(C1)CC(C(=O)O)C2 (stereo not given)
Result: > 100 µM (inactive)

Q: Tell me GI50 reported for CN(C)NC1=C([N+](=O)[O-])C=NN(c2ccccc2)C1
Result: 2.1 µM (inactive)

Q: Tell me GI50 reported for OC(c1ccccc1)(c1cccnc1)C(O)(c1ccccc1)c1cccnc1 (stereo not given)
Result: > 100 µM (inactive)

Q: Tell me GI50 reported for CC1OC(OC2C(O)COC(OC3C(C)OC(OC4C(OC(=O)[C@]56CCC(C)(C)C[C@@H]5C5=CCC7[C@@]8(C)C[C@H](O)[C@H](OC9OC(CO)C(O)C(O)C9O)[C@@](C)(CO)[C@@H]8CC[C@@]7(C)[C@]5(C)CC6)OCC(O)C4O)C(O)C3OC3OCC(O)C(O)C3O)C2O)C(O)C(O)C1O (stereo not given in full)
Result: 14 µM (inactive)

Q: Tell me GI50 reported for O=C(Nc1ccccn1)/C(=C\C(=O)c1ccc(Cl)cc1)Nc1ccccc1
Result: > 10 µM (inactive)

Q: Tell me GI50 reported for CN1C2CCC1CC(=CCOC(c1ccc(F)cc1)c1ccc(F)cc1)C2
Result: 17.1 µM (inactive)

Q: Tell me GI50 reported for CNC(=O)OCc1nc(SC2CCCCO2)n(C)c1COC(=O)NC (stereo not given)
Result: > 100 µM (inactive)

Q: Tell me GI50 reported for COc1ccc(O)c(C(=O)CCC(=O)O)c1
Result: > 100 µM (inactive)

Q: Tell me GI50 reported for O=C(O)/C=C\C(=O)c1ccc(Cl)cc1
Result: > 100 µM (inactive)

---

Test system: CCRF-CEM
assay.comment: NCI tumour cell line growth inhibition, 48 h
The source made the active and inactive calls. Rule as the data show it: active = GI50 up to about 1.1 µM and inactive = higher.
I would appreciate it if you answered using one of these outcomes: TRUE for active, FALSE for inactive

Q: # lookup: test call for CO[C@H]1C[C@@H]2CC[C@@H](C)[C@@](O)(O2)C(=O)C(=O)N2CCCC[C@H]2C(=O)O[C@H]([C@H](C)C[C@@H]2CC[C@@H](OC(=O)C(C)(CO)CO)[C@H](OC)C2)CC(=O)[C@H](C)/C=C(\C)[C@@H](O)[C@@H](OC)C(=O)[C@H](C)C[C@H](C)/C=C/C=C/C=C/1C [TEMSIROLIMUS]
Result: TRUE

Q: # lookup: test call for COC(=O)/C=C/c1cc(O)c2c(c1)[C@H](C(=O)OC)[C@@H](c1ccc(O)c(O)c1)O2
Result: TRUE

Q: # lookup: test call for N#Cc1c(-c2ccco2)cc(-c2ccc(N)cc2)[nH]c1=O
Result: FALSE

Q: # lookup: test call for CCOC(=O)Cn1c(=O)c2cc(C)cc3c(Cl)nc4c(OC)c(OC)cc1c4c32
Result: FALSE

Q: # lookup: test call for CCOC(=O)CCC(C(=O)OCC)n1nnc2cc(Nc3c(C)[n+]([O-])c4cc(F)c(OCC)cc4[n+]3[O-])ccc21 (stereo not given)
Result: FALSE
